The reported measurements were obtained from patent US6506766B1.

- Target Or Test System: human progesterone receptor-A [PRA] isoform (Homo sapiens, UniProt P06401)
- Construct: host or cells: insect SF21 cells (baculovirus)
- Sequence (P06401 165-933): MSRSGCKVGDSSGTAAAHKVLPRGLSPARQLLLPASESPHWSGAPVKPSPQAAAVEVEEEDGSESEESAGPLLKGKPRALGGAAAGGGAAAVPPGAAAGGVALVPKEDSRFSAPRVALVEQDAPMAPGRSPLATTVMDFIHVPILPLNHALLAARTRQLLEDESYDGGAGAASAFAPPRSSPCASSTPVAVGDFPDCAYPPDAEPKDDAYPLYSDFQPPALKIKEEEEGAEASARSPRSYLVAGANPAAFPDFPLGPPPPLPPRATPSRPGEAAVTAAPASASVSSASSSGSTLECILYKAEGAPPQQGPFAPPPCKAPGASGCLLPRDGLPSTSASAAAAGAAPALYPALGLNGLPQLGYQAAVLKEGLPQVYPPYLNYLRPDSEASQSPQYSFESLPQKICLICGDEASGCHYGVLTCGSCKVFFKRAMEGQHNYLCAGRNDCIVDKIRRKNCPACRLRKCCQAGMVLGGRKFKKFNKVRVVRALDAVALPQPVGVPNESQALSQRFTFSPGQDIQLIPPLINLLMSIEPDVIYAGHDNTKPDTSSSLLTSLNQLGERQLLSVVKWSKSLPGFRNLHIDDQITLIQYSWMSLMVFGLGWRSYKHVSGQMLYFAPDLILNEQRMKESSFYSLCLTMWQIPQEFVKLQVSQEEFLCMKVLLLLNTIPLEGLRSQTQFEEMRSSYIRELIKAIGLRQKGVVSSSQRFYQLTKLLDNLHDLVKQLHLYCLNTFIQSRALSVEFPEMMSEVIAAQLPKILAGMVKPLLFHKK
- Assay Comment: Radioligand binding with human progesterone receptor cytosol ([3H]-progesterone competition)
- Test Settings: PRA cytosol expressed in insect SF21 cells, [3H]Prog ~0.8 nM, 4° C. overnight; Ki by Cheng-Prusoff, KL ~4.5 nM; read-out: Ki (nM) PR
Parameter Ki: see the listing below.

Would you please look over these solved cases?
{"columns": ["Molecule", "Value Kind", "Endpoint Result"],
 "data": [
  ["C=C1CCCCC1C1Oc2cccc(OC)c2-c2ccc3c(c21)C(C)=CC(C)(C)N3 (mixture of isomers) [Example 141]", "Ki", "≥ 10000 nM"],
  ["COCOC/C=C/C1Oc2cccc(OC)c2-c2ccc3c(c21)C(C)=CC(C)(C)N3 (stereo not shown) [Example 183]", "Ki", "≥ 10000 nM"],
  ["COc1cccc2c1-c1ccc3c(c1C(c1cc(Cl)cc(Cl)c1)O2)C(C)=CC(C)(C)N3 (single isomer, unassigned; (-)) [Example 32]", "Ki", "1560 nM"],
  ["COc1cccc2c1-c1ccc3c(c1C(c1cccc(Cl)c1)O2)C(C)=CC(C)(C)N3 (stereo not shown) [Example 23]", "Ki", "6150 nM"],
  ["CCCCC1Oc2ccc(O)c(Cl)c2-c2ccc3c(c21)C(C)=CC(C)(C)N3 (stereo not shown) [Example 407]", "Ki", "16.4 nM"],
  ["CC1=CC(C)(C)Nc2ccc3c(c21)[C@H]([C@@H]1C=CCC1)Oc1ccc(O)c(Cl)c1-3 [Example 221]", "Ki", "4.2 nM"]
]}

# query: Ki | item COc1cccc2c1-c1ccc3c(c1C(C1=CCCCC1)O2)C(C)=CC(C)(C)N3 (stereo not shown) [Example 325] | system: human progesterone receptor-A [PRA] isoform (Homo sapiens, UniProt P06401)
≥ 10000 nM

Same for COc1cccc2c1-c1ccc3c(c1C(CC=C1CCCCC1)O2)C(C)=CC(C)(C)N3 (stereo not shown) [Example 187]
3900 nM

Here is the next molecule: C=CCC1Oc2cccc(OC(F)F)c2-c2ccc3c(c21)C(C)=CC(C)(C)N3 (stereo not shown) [Example 8]
6010 nM

Can you check COc1cccc2c1-c1ccc3c(c1C(C1C=CCCCCC1)O2)C(C)=CC(C)(C)N3 (stereo not shown) [Example 143] next?
8100 nM

Also C=CCC1Oc2ccc(OC(C)=O)c(OC)c2-c2ccc3c(c21)C(C)=CC(C)(C)N3 (stereo not shown) [Example 295] , if possible.
59.3 nM

// same read-out, input: COc1cccc2c1-c1ccc3c(c1C(CC=C1CCCCCC1)O2)C(C)=CC(C)(C)N3 (stereo not shown) [Example 189]
1700 nM

Param item: C=Cc1cccc2oc(=O)c3c4c(ccc3c12)NC(C)(C)C=C4C [Example 339]
≥ 10000 nM

What do you get for COc1cccc2c1-c1ccc3c(c1C(=Cc1cc(C)no1)O2)C(C)=CC(C)(C)N3 [Example 350] ?
≥ 10000 nM
